system: HepG2; assay: MTT antiproliferative assay, HepG2; assay type: cell-based, human; details: Homo sapiens, HepG2, 48 h, mean of three experiments ± SD
List of IC50 values.
experimental_readout: IC50 (µM)

{"columns": ["compound", "measured_on", "experimental_value"],
 "data": [
  ["CC(C)C(C)C=CC(C)C1CCC2C1(C)CCC1C23C=CC2(CC(OC(=O)c4ccccc4C(=O)Nc4ccc5ccccc5c4)CCC12C)OO3 (stereo not drawn)", "HepG2", 14.3],
  ["CC(C)C(C)C=CC(C)C1CCC2C1(C)CCC1C23C=CC2(CC(OC(=O)CCCC(=O)Nc4ccc(F)cc4)CCC12C)OO3 (stereo not drawn)", "HepG2", 9.79],
  ["CC(C)C(C)C=CC(C)C1CCC2C1(C)CCC1C23C=CC2(CC(OC(=O)CCCC(=O)Nc4nc5cc(F)ccc5s4)CCC12C)OO3 (stereo not drawn)", "HepG2", 11.9]
]}

====

IC50 overview
test system: HepG2; assay: MTT antiproliferative assay, HepG2; type: cell-based, human; settings: Homo sapiens, HepG2, 48 h, mean of three experiments ± SD
experimental_readout: IC50 (µM)

{"columns": ["molecule", "measured_on", "experimental_readout", "experimental_value"],
 "data": [
  ["CC(C)C(C)C=CC(C)C1CCC2C1(C)CCC1C23C=CC2(CC(OC(=O)CCCC(=O)Nc4nccs4)CCC12C)OO3 (stereo not drawn)", "HepG2", "IC50", 13.1],
  ["CC(C)C(C)C=CC(C)C1CCC2C1(C)CCC1C23C=CC2(CC(OC(=O)c4ccccc4C(=O)Nc4nc5ccc(F)cc5s4)CCC12C)OO3 (stereo not drawn)", "HepG2", "IC50", 15.3],
  ["CC(C)C(C)C=CC(C)C1CCC2C1(C)CCC1C23C=CC2(CC(OC(=O)CCCC(=O)Nc4nncs4)CCC12C)OO3 (stereo not drawn)", "HepG2", "IC50", 10.7],
  ["CC(C)C(C)C=CC(C)C1CCC2C1(C)CCC1C23C=CC2(CC(OC(=O)c4ccccc4C(=O)Nc4nccs4)CCC12C)OO3 (stereo not drawn)", "HepG2", "IC50", 11],
  ["CC(C)C(C)C=CC(C)C1CCC2C1(C)CCC1C23C=CC2(CC(OC(=O)c4ccccc4C(=O)Nc4ccc(F)cc4)CCC12C)OO3 (stereo not drawn)", "HepG2", "IC50", 9.02],
  ["CC(C)[C@@H](C)/C=C/[C@@H](C)[C@H]1CC[C@@H]2[C@]1(C)CC[C@H]1[C@]23C=C[C@]2(C[C@@H](O)CC[C@]12C)OO3 [EP, Ergosterol peroxide]", "HepG2", "IC50", 18.1]
]}

====

test system: MCF-7; experiment: MTT antiproliferative assay, MCF-7; assay type: cell-based, human; details: 48 h, mean of three experiments ± SD

{"columns": ["molecule", "measured_on", "display_unit", "IC50"],
 "data": [
  ["N.N.[Cl][Pt][Cl] [Cisplatin, reference compound]", "MCF-7", "µM", 4.23]
]}

====

test system: HepG2; experiment: MTT antiproliferative assay, HepG2; type: cell-based, human; settings: Homo sapiens, HepG2, 48 h, mean of three experiments ± SD
pIC50: −log10 of the molar value.

{"columns": ["molecule", "pIC50"],
 "data": [
  ["CC(C)C(C)C=CC(C)C1CCC2C1(C)CCC1C23C=CC2(CC(OC(=O)c4ccccc4C(=O)Nc4nc5cc(F)ccc5s4)CCC12C)OO3 (stereo not shown)", 4.94],
  ["O=C(Cc1ccccc1)Nc1nnc(CCSCCc2nnc(NC(=O)Cc3ccccc3)s2)s1 [BPTES, reference compound]", 4.22],
  ["CC(C)C(C)C=CC(C)C1CCC2C1(C)CCC1C23C=CC2(CC(OC(=O)CCCC(=O)Nc4ccc5ccccc5c4)CCC12C)OO3 (stereo not shown)", 4.86],
  ["CC(C)C(C)C=CC(C)C1CCC2C1(C)CCC1C23C=CC2(CC(OC(=O)CCCC(=O)Nc4ccccc4)CCC12C)OO3 (stereo not shown)", 4.83]
]}
